Biological target: T1, human IL1RAP (hu-IL1RAP) on human cells (human, UniProt Q9NPH3 21-570)
T1 sequence: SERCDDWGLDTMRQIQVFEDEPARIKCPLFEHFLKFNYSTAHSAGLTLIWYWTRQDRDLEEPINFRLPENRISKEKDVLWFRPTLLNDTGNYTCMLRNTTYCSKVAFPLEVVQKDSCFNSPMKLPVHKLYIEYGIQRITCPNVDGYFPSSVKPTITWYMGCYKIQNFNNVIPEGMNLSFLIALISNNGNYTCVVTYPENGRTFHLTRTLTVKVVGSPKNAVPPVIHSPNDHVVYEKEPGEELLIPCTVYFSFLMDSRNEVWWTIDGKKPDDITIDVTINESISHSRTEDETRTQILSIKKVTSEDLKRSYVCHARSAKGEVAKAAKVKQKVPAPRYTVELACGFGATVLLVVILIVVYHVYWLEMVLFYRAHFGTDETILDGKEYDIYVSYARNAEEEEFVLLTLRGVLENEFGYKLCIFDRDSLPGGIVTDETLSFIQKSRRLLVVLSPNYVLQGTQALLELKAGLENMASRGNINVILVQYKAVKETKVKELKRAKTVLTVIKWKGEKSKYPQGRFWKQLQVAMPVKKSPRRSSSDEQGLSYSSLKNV
Experiment: cell-based or functional assay
Assignment: determine reported HEK-Blue, IL-33, % inhibition at 100 nM (IgG) for the given binders.
Lab book: enter the figure in %, no units written.

Sample h11C5 variant K17/H3 IgG (YKS) (antibody, V domains shown, Human IgG1 N297G; also called 11C5-YKS) VH: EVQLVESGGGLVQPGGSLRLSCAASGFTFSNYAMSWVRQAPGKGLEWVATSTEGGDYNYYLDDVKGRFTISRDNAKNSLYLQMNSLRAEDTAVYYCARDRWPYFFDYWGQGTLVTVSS VL: DIQMTQSPSSLSASVGDRVTITCRASENIYSNLAWYQQKPGKSPKLLVYGYKNLADGVPSRFSGSGSGTDYTLTISSLQPEDFATYYCQHFKTTPRTFGGGTKVEIKR ; HEK-Blue, IL-33, % inhibition at 100 nM (IgG) observed: 87

Looking up h11C5 variant K13/H2 IgG (YID) (antibody, V domains shown, Human IgG1 N297G; also called 11C5-YID) VH: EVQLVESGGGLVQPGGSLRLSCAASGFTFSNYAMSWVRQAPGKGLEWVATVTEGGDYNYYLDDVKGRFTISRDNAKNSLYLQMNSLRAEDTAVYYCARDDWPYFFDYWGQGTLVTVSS VL: DIQMTQSPSSLSASVGDRVTITCRASENIYSNLAWYQQKPGKSPKLLVYGYKNLADGVPSRFSGSGSGTDYTLTISSLQPEDFATYYCQHFITTPRTFGGGTKVEIKR , I found its HEK-Blue, IL-33, % inhibition at 100 nM (IgG) recorded as 99

// sample Parent IgG Ab (full-length IgG of h11C5_C59Y/A43S) (antibody, V domains shown) VH: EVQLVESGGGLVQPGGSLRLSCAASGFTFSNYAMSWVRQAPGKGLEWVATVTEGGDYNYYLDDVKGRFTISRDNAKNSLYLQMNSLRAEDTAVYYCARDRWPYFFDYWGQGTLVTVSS VL: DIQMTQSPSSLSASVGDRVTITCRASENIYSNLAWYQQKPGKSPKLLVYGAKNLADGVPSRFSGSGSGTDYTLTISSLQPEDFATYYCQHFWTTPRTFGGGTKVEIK , its HEK-Blue, IL-33, % inhibition at 100 nM (IgG) was 99

Lookup result for K17 IgG (VL-A51Y/W92K) (antibody, V domains shown) VH: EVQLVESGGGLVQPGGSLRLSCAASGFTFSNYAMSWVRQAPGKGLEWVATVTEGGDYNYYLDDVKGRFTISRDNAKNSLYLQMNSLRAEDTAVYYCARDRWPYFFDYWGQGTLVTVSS VL: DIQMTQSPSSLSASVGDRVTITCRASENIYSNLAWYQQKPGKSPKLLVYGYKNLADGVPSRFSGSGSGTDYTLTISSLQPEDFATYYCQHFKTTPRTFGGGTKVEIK ; measured HEK-Blue, IL-33, % inhibition at 100 nM (IgG): 99
